Origin of measurements: patent US20250179059A1

Below, each entry is listed alongside its reported pIC50.
TARGET_OR_SYSTEM: human BRD4 bromodomain II (Homo sapiens)
Construct: human BRD4 bromodomain II [based on Genbank NM_058243, residues 349-460]; host or cells: E. coli
ASSAY_NOTES: Bromodomain binding assay (AlphaScreen), BRD4 BDII
CONDITION_NOTES: AlphaScreen assay, Table C2; read-out: BRD4 BDII IC50
pIC50: −log10 of the molar value.

Worked cases, pIC50 given:
>  <COMPOUND>
C[C@@H]1CN(c2cc(-c3cc(F)cc(-c4ccc(-n5ccn(C)c5=O)c(Cl)c4)c3O)cc3nccnc23)CCN1 [Example 549]

>  <pIC50>
8.00 to 9.00

$$$$
>  <COMPOUND>
CN1CCN(c2ccc(-c3cccc(-c4cnnc(N5CCNCC5)c4)c3O)cc2Cl)C1=O [Example 343]

>  <pIC50>
8.00 to 9.00

$$$$
>  <COMPOUND>
CCc1cc(-c2ccnc(N3CCNCC3)c2)c(O)c(-c2ccc(N3CCN(C)C3=O)c(Cl)c2)c1 [Example 311]

>  <pIC50>
8.00 to 9.00

$$$$
>  <COMPOUND>
Cn1ccn(-c2ccc(-c3cc(F)cc(-c4cncc(N5CCNCC5)c4)c3O)cc2Cl)c1=O [Example 472]

>  <pIC50>
8.00 to 9.00

$$$$
>  <COMPOUND>
Cn1ccn(-c2ccc(-c3cc(F)cc(-c4ccnc(N5CCS(=O)(=O)CC5)c4)c3O)cc2Cl)c1=O [Example 707]

>  <pIC50>
8.00 to 9.00

$$$$
>  <COMPOUND>
C#CCN1CCN(c2ccc(-c3cc(F)cc(-c4ccnc(N5CCNCC5)c4)c3O)cc2Cl)C1=O [Example 367]

>  <pIC50>
< 7.00

$$$$

Ask | Using the record for CN1CCN(c2ccc(-c3cc(F)cc(-c4ccnc(N5CCC(N)CC5)c4)c3O)cc2Cl)C1=O [Example 350] , report its pIC50.
Reply | 7.00 to 8.00

Ask | What about this compound? CC(=O)Nc1ccc(-c2cccc(-c3cc(N4CCNCC4)no3)c2O)cc1OC1CC1 [Example 44, 2,2,2-trifluoroacetate]
Reply | 7.00 to 8.00

----------
Below, each entry is listed alongside its reported pIC50.
TARGET_OR_SYSTEM: human BRD4 bromodomain II (Homo sapiens, UniProt O60885)
Construct: human BRD4 bromodomain II [based on Genbank NM_058243, residues 349-460]; host or cells: E. coli
ASSAY_NOTES: Bromodomain binding assay (AlphaScreen), BRD4 BDII
CONDITION_NOTES: AlphaScreen assay, Table C2; read-out: BRD4 BDII IC50
pIC50: −log10 of the molar value.

>  <COMPOUND>
CC#Cc1ncc(-c2cc(F)cc(-c3ccc(N4CCN(C)C4=O)c(Cl)c3)c2O)cc1N1CCNCC1

>  <pIC50>
8.00 to 9.00

$$$$

Ask | Using the record for `CC(=O)Nc1ccc(-c2cccc(-c3cc(N4CCNCC4)sn3)c2O)cc1` , report its pIC50.
Reply | < 7.00

Ask | What about this compound? `CN(C)C1(c2cccc(-c3cc(F)cc(-c4ccc(-n5ccn(C)c5=O)c(Cl)c4)c3O)c2)CC1`
Reply | 7.00 to 8.00

Ask | What about this compound? `CC(=O)Nc1ccc(-c2cccc(-c3cc(Cl)cc(N4CCNCC4)c3)c2O)cc1F`
Reply | 8.00 to 9.00

Ask | What about this compound? `Cn1ccn(-c2ccc(-c3cc(F)cc(-c4cnnc(N5CCN(C(C)(C)C)CC5)c4)c3O)cc2Cl)c1=O`
Reply | 9.00 to 11.00

Ask | What about this compound? `CC(=O)Nc1ccc(-c2cccc(-c3cncc(N4CCN[C@H](C)C4)c3)c2O)cc1F`
Reply | 8.00 to 9.00

Ask | What about this compound? `Cc1cc(-c2ccnc(N3CCNCC3)c2)c(O)c(-c2ccc(N3CCN(C)C3=O)c(Cl)c2)c1`
Reply | 8.00 to 9.00
